- EXPERIMENTAL TARGET: recombinant human Myt1 (Homo sapiens (Human), UniProt Q99640)
- Sequence (Q99640 whole entry): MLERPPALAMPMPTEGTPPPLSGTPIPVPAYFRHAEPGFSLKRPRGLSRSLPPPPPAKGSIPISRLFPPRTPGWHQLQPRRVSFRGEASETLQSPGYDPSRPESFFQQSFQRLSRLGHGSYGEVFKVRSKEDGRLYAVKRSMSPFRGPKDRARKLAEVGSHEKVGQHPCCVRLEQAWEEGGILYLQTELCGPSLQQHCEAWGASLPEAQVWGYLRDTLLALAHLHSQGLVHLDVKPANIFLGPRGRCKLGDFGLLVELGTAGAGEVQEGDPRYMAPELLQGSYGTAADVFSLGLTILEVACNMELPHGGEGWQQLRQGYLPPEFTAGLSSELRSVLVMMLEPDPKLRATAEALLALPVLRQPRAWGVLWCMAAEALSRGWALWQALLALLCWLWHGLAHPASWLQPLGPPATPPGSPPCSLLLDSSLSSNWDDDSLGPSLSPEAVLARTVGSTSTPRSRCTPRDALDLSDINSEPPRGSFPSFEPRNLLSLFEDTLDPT
- PROTOCOL NOTES: Myt1 enzymatic assay (ADP-Glo kinase assay)
- EXPERIMENTAL SETUP: 18 nM enzyme, 10 uM ATP
MEASUREMENT TYPE: IC50

Worked cases, IC50 given:
                                   compound  measurement_type  reported
0  NC(=O)c1c(N)n(-c2cccc3[nH]ncc23)c2ncc(Cl)cc12              IC50     50 nM
1  Cc1cc2c(-c3c(C)ccc(O)c3C)c(N)c(C(N)=O)n2cc1C              IC50    108 nM
2  Cc1ccc2[nH]ncc2c1-n1c(N)c(C(N)=O)c2cc(Cl)cnc21              IC50     40 nM
3  Cc1ccc(O)c(Cl)c1-n1c(N)c(C(N)=O)c2nc(C3CC3)cnc21              IC50   < 10 nM
4  Cc1ccc(O)c(C)c1-n1c(N)c(C(N)=O)c2cc(N3CCCC3=O)cnc21              IC50   < 10 nM
5  C=C(C)c1cnc2c(n1)c(C(N)=O)c(N)n2-c1c(C)ccc(O)c1C              IC50   < 10 nM

Query string: Return IC50 for the following compound: "Cc1ccc(O)c(C)c1-n1c(N)c(C(N)=O)c2nc(C3CC3)c(C)nc21"
Result string: < 10 nM

Query string: Return IC50 for the following compound: "Cc1ccc(O)c(C)c1-n1c(N)c(C(N)=O)c2nc(-c3cncs3)cnc21"
Result string: < 10 nM

Query string: Return IC50 for the following compound: "Cc1ccc(O)c(C)c1-n1c(N)c(C(N)=O)c2nc(-c3cnccn3)cnc21"
Result string: < 10 nM

Query string: Return IC50 for the following compound: "Cc1ccc(O)c(C)c1-n1c(N)c(C(N)=O)c2nc(N3CC4CCC(C3)O4)cnc21"
Result string: < 10 nM

Query string: Return IC50 for the following compound: "Cc1ccc(O)c(C)c1-n1c(N)c(C(N)=O)c2cc(I)cnc21"
Result string: < 10 nM

Query string: Return IC50 for the following compound: "Cc1ccc(O)c(C)c1-n1c(N)c(C(N)=O)c2cc(-c3nccs3)cnc21"
Result string: < 10 nM

Query string: Return IC50 for the following compound: "NC(=O)c1c(N)n(-c2cccc3[nH]ncc23)c2ncc(-c3ncc(F)cc3F)nc12"
Result string: 52 nM

Query string: Return IC50 for the following compound: "Cc1ccc(O)c(C)c1-n1c(N)c(C(N)=O)c2nc(C3(C(F)(F)F)CC3)cnc21"
Result string: < 10 nM

Query string: Return IC50 for the following compound: "Cc1ccc2c(C(N)=O)c(N)n(-c3c(C)ccc(O)c3C)c2n1"
Result string: < 10 nM

Query string: Return IC50 for the following compound: "Cc1ccc(O)c(C)c1-n1c(N)c(C(N)=O)c2cc(Br)c(C)nc21"
Result string: < 10 nM

Query string: Return IC50 for the following compound: "C=Cc1cnc2c(n1)c(C(N)=O)c(N)n2-c1c(C)ccc(O)c1C"
Result string: < 10 nM

Query string: Return IC50 for the following compound: "Cc1nc2c(C(N)=O)c(N)n(-c3c(Cl)ccc(O)c3C)c2nc1C"
Result string: < 10 nM
